# key: entry, value: remaining at 1 h
- experimental details: Metabolic stability in human liver microsome assessed as parent compound remaining in absence of NADPH measured at 60 mins by LC-MS/MS analysis
- Assay type: ADME
- condition description: liver microsomes, read-out: Stability
Report the figure in % without appending any unit label.

Worked examples, 4 compounds total:
# smiles code, display unit, remaining at 1 h
records = [
    ("CC[C@H]1OC(=O)[C@@](C)(F)C(=O)[C@H](C)[C@@H](O[C@@H]2O[C@H](C)C[C@H](N(C)C)[C@H]2O)[C@](C)(OC)C[C@@H](C)C(=O)[C@H](C)[C@H]2N(CCCOC(=O)Nc3cccc(C)c3)C(=O)O[C@]12C", "%", 97.5),
    ("CC[C@H]1OC(=O)[C@@](C)(F)C(=O)[C@H](C)[C@@H](O[C@@H]2O[C@H](C)C[C@H](N(C)C)[C@H]2O)[C@](C)(OC)C[C@@H](C)C(=O)[C@H](C)[C@H]2N(CCCOC(=O)Nc3ccc(F)cc3)C(=O)O[C@]12C", "%", 95),
    ("CC[C@H]1OC(=O)[C@@](C)(F)C(=O)[C@H](C)[C@@H](O[C@@H]2O[C@H](C)C[C@H](N(C)C)[C@H]2O)[C@](C)(OC)C[C@@H](C)C(=O)[C@H](C)[C@H]2N(CCCOC(=O)Nc3c(C)noc3C)C(=O)O[C@]12C", "%", 101),
    ("CC[C@H]1OC(=O)[C@@](C)(F)C(=O)[C@H](C)[C@@H](O[C@@H]2O[C@H](C)C[C@H](N(C)C)[C@H]2O)[C@](C)(OC)C[C@@H](C)C(=O)[C@H](C)[C@H]2N(CCCOC(=O)Nc3ccc4c(c3)CCO4)C(=O)O[C@]12C", "%", 89.4),
]

Req: Endpoint output: remaining at 1 h of "CC[C@H]1OC(=O)[C@@](C)(F)C(=O)[C@H](C)[C@@H](O[C@@H]2O[C@H](C)C[C@H](N(C)C)[C@H]2O)[C@](C)(OC)C[C@@H](C)C(=O)[C@H](C)[C@H]2N(CCCOC(=O)Nc3ccccc3C)C(=O)O[C@]12C" . Value?
Resp: 101

====

# key: entry, value: MIC
- System: Moraxella catarrhalis
- experimental details: Antibacterial activity against Moraxella catarrhalis BCA 19-6 assessed as inhibition of bacterial growth incubated for 24 hrs by CLSI based broth microdilution method
- Assay type: functional
- condition description: Moraxella catarrhalis, BCA 19-6, 24 h, read-out: MIC
Report the figure in µg/mL without appending any unit label.

Worked examples, 3 compounds total:
# smiles code, MIC [µg/mL]
records = [
    ("CC[C@H]1OC(=O)[C@@](C)(F)C(=O)[C@H](C)[C@@H](O[C@@H]2O[C@H](C)C[C@H](N(C)C)[C@H]2O)[C@](C)(OC)C[C@@H](C)C(=O)[C@H](C)[C@H]2N(CCCOC(=O)Nc3cccc(F)c3C)C(=O)O[C@]12C", 0.45),
    ("CC[C@H]1OC(=O)[C@@](C)(F)C(=O)[C@H](C)[C@@H](O[C@@H]2O[C@H](C)C[C@H](N(C)C)[C@H]2O)[C@](C)(OC)C[C@@H](C)C(=O)[C@H](C)[C@H]2N(CCCOC(=O)Nc3ccc4c(c3)CCO4)C(=O)O[C@]12C", 0.125),
    ("CC[C@H]1OC(=O)[C@@](C)(F)C(=O)[C@H](C)[C@@H](O[C@@H]2O[C@H](C)C[C@H](N(C)C)[C@H]2O)[C@](C)(OC)C[C@@H](C)C(=O)[C@H](C)[C@H]2N(CCCOC(=O)Nc3ccc(-c4ccccc4)cc3)C(=O)O[C@]12C", 1),
]

Req: Reported MIC for Moraxella catarrhalis, given "CC[C@H]1OC(=O)[C@@](C)(F)C(=O)[C@H](C)[C@@H](O[C@@H]2O[C@H](C)C[C@H](N(C)C)[C@H]2O)[C@](C)(OC)C[C@@H](C)C(=O)[C@H](C)[C@H]2N(CCCOC(=O)Nc3c(F)cccc3F)C(=O)O[C@]12C" ?
Resp: 0.125

Req: Reported MIC for Moraxella catarrhalis, given "CC[C@H]1OC(=O)[C@@](C)(F)C(=O)[C@H](C)[C@@H](O[C@@H]2O[C@H](C)C[C@H](N(C)C)[C@H]2O)[C@](C)(OC)C[C@@H](C)C(=O)[C@H](C)[C@H]2N(CCCOC(=O)Nc3ccc(C(F)(F)F)cc3)C(=O)O[C@]12C" ?
Resp: 0.125

Req: Reported MIC for Moraxella catarrhalis, given "CC[C@H]1OC(=O)[C@@](C)(F)C(=O)[C@H](C)[C@@H](O[C@@H]2O[C@H](C)C[C@H](N(C)C)[C@H]2O)[C@](C)(OC)C[C@@H](C)C(=O)[C@H](C)[C@H]2N(CCCOC(=O)Nc3ccc(Cl)cc3)C(=O)O[C@]12C" ?
Resp: 0.25

Req: Reported MIC for Moraxella catarrhalis, given "CC[C@H]1OC(=O)[C@@](C)(F)C(=O)[C@H](C)[C@@H](O[C@@H]2O[C@H](C)C[C@H](N(C)C)[C@H]2O)[C@](C)(OC)C[C@@H](C)C(=O)[C@H](C)[C@H]2N(CCCOC(=O)Nc3ccc(F)cc3)C(=O)O[C@]12C" ?
Resp: 0.03

Req: Reported MIC for Moraxella catarrhalis, given "CC[C@H]1OC(=O)[C@H](C)C(=O)[C@H](C)[C@@H](O[C@@H]2O[C@H](C)C[C@H](N(C)C)[C@H]2O)[C@](C)(OC)C[C@@H](C)C(=O)[C@H](C)[C@H]2N(CCCOC(=O)Nc3cccc(C)c3)C(=O)O[C@]12C" ?
Resp: 0.5

Req: Reported MIC for Moraxella catarrhalis, given "CC[C@H]1OC(=O)[C@@](C)(F)C(=O)[C@H](C)[C@@H](O[C@@H]2O[C@H](C)C[C@H](N(C)C)[C@H]2O)[C@](C)(OC)C[C@@H](C)C(=O)[C@H](C)[C@H]2N(CCCOC(=O)Nc3ccc(SC)cc3)C(=O)O[C@]12C" ?
Resp: 0.5

Req: Reported MIC for Moraxella catarrhalis, given "CC[C@H]1OC(=O)[C@@](C)(F)C(=O)[C@H](C)[C@@H](O[C@@H]2O[C@H](C)C[C@H](N(C)C)[C@H]2O)[C@](C)(OC)C[C@@H](C)C(=O)[C@H](C)[C@H]2N(CCCOC(=O)Nc3ccccc3Cl)C(=O)O[C@]12C" ?
Resp: 0.5

Req: Reported MIC for Moraxella catarrhalis, given "CC[C@H]1OC(=O)[C@H](C)C(=O)[C@H](C)[C@@H](O[C@@H]2O[C@H](C)C[C@H](N(C)C)[C@H]2O)[C@](C)(OC)C[C@@H](C)C(=O)[C@H](C)[C@H]2N(CCCOC(=O)Nc3ccc(C)cc3)C(=O)O[C@]12C" ?
Resp: 0.25

====

# key: entry, value: MIC
- Tested on: Moraxella catarrhalis
- experimental details: Antibacterial activity against Moraxella catarrhalis BCA 19-5 assessed as inhibition of bacterial growth incubated for 24 hrs by CLSI based broth microdilution method
- Assay type: functional
- condition description: Moraxella catarrhalis, BCA 19-5, 24 h, read-out: MIC
Report the figure in µg/mL without appending any unit label.

# smiles code, quantity, display unit, recorded measurement
measured = [
    ("CC[C@H]1OC(=O)[C@H](C)C(=O)[C@H](C)[C@@H](O[C@@H]2O[C@H](C)C[C@H](N(C)C)[C@H]2O)[C@](C)(OC)C[C@@H](C)C(=O)[C@H](C)[C@H]2N(CCCOC(=O)Nc3ccc(C)cc3)C(=O)O[C@]12C", "MIC", "µg/mL", 0.125),
    ("CC[C@H]1OC(=O)[C@@](C)(F)C(=O)[C@H](C)[C@@H](O[C@@H]2O[C@H](C)C[C@H](N(C)C)[C@H]2O)[C@](C)(OC)C[C@@H](C)C(=O)[C@H](C)[C@H]2N(CCCOC(=O)Nc3ccccc3OC)C(=O)O[C@]12C", "MIC", "µg/mL", 11.1),
]

Next:
Req: Endpoint output: MIC of "CC[C@H]1OC(=O)[C@@](C)(F)C(=O)[C@H](C)[C@@H](O[C@@H]2O[C@H](C)C[C@H](N(C)C)[C@H]2O)[C@](C)(OC)C[C@@H](C)C(=O)[C@H](C)[C@H]2N(CCCOC(=O)Nc3ccccc3Cl)C(=O)O[C@]12C" . Value?
Resp: 0.25

====

- Tested on: Streptococcus pneumoniae
- experimental details: Antibacterial activity against erythromycin-resistant Streptococcus pneumoniae SPN19-14 assessed as inhibition of visible bacterial growth incubated for 18 hrs by broth microdilution method
- Assay type: functional
# key: entry, value: MIC
Report the figure in µg/mL without appending any unit label.

# smiles code, display unit, MIC
rows = [
    ("CC[C@H]1OC(=O)[C@@](C)(F)C(=O)[C@H](C)[C@@H](O[C@@H]2O[C@H](C)C[C@H](N(C)C)[C@H]2O)[C@](C)(OC)C[C@@H](C)C(=O)[C@H](C)[C@H]2N(CCCOC(=O)Nc3ccc(Cl)cc3C)C(=O)O[C@]12C", "µg/mL", 0.125),
]

Next:
Req: Endpoint output: MIC of "CC[C@H]1OC(=O)[C@@](C)(F)C(=O)[C@H](C)[C@@H](O[C@@H]2O[C@H](C)C[C@H](N(C)C)[C@H]2O)[C@](C)(OC)C[C@@H](C)C(=O)[C@H](C)[C@H]2N(CCCOC(=O)Nc3cccs3)C(=O)O[C@]12C" . Value?
Resp: 0.25

Every entry's value here was drawn from ChEMBL document CHEMBL5543097.
